Biological target: human adenosine A2A receptor (Homo sapiens)
Construct: expressed in transfected cells; host or cells: CHO cells, Semliki Forest virus expression system; membrane preparation
Sequence (P29274 whole entry): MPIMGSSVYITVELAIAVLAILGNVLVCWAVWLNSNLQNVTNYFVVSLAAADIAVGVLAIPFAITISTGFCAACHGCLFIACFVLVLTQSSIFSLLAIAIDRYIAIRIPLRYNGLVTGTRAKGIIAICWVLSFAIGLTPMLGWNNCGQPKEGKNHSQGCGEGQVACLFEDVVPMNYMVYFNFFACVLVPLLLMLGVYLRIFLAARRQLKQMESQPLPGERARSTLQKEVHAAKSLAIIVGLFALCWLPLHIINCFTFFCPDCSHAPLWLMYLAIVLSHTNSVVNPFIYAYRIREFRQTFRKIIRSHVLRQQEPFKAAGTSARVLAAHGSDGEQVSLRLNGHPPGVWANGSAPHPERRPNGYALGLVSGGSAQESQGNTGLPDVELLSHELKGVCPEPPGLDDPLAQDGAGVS
Assay: Human adenosine A2A receptor [3H]-SCH-58261 binding assay
Details: affinity to human adenosine A2A receptor; read-out: Ki HA2A
Description: Human Adenosine A2A Receptor The human adenosine A2A receptor was recombinantly expressed in chinese hamster ovary (CHO) cells using the semliki forest virus expression system. […] Assay plates were incubated for 1 hour at room temperature before centrifugation and then bound ligand determined using a Packard Topcount scintillation counter. IC50 values were calculated using a non-linear curve fitting program and Ki values calculated using the Cheng-Prussoff equation.
pKi: −log10 of the molar value.
recorded-metric: pKi

Below are worked cases with known answers.
molecule="Nc1cc(C(=O)NCCc2ccccc2F)cc2nc(-c3ccccn3)nn12 [Example 40]" reported_result=7.30
molecule="CCCCN(Cc1ccccc1)C(=O)c1cc(N)n2nc(-c3ccc(OC)s3)nc2c1 [Example 73]" reported_result=7.43

A: CCN(C(=O)c1cc(N)n2nc(-c3ccc(Br)o3)nc2c1)C(C)C [Example 272]
B: CC1CCC(C)N1C(=O)c1cc(N)n2nc(-c3ccc(Br)o3)nc2c1 (stereo not drawn) [Example 275]
Of A versus B , which is the one with smaller reported pKi? Give the label under which the chosen entry appears. B
(B: 8.27, A: 8.66)

I: CC1CCCN1C(=O)c1cc(N)n2nc(-c3ccc(Cl)o3)nc2c1 (stereo not drawn) [Example 254]
II: CCN(Cc1ccncc1)C(=O)c1cc(N)n2nc(-c3ccc(Cl)o3)nc2c1 [Example 262]
Min pKi? I | II Could you answer with the label of the item you picked? I
